Recorded GI50 values for a group of compounds are listed next.
Test system: OVCAR-3
Assay summary: NCI tumour cell line growth inhibition, 48 h
Active and inactive are the calls of the source. Cut-off read from the data, not from the text of the source: active = GI50 up to about 1.1 µM and inactive = higher.

Sample records with GI50:
{"Compound": "CC1CCC(=O)C(C(=O)CC2CC(=O)NC(=O)C2)C1 (centres undefined)", "Readout label": "GI50", "Reading": "> 100 µM (inactive)"}
{"Compound": "CCOc1cc(NC(C)=O)ccc1C(=O)NN1C(=O)C(Cl)C1c1ccccc1 (centres undefined)", "Readout label": "GI50", "Reading": "14.7 µM (inactive)"}

Note to self: GI50 recorded for Cn1c(=O)c2sc3cc4c(cc3c2c2ccccc21)sc1c(=O)n(C)c2ccccc2c14 was > 100 µM (inactive)

Note to self: GI50 recorded for CN(C)Cc1c[nH]c2ncnc(O)c12 was > 100 µM (inactive)

# GI50 of COc1ccc(/C=C2\C(=O)NC(=O)c3ccccc32)cc1OC = 7.48 µM (inactive)

Lab note: measured GI50 of CCN(CC)C(=S)SC(C(=O)Nc1nnc(-c2ccccc2)o1)c1ccccc1 (centres undefined) was 15.2 µM (inactive)

Documented GI50 of CC(=O)OC1CC2C(C)(C)C(=O)C=C[C@]2(C)C2CCC3(C)C(=CC(=O)C3c3ccoc3)[C@]12C (some centres undefined) : 11.5 µM (inactive)

Sample COCC(=O)OC1CCn2c1nc1c2C(=O)C(C)=C(NC(C)=O)C1=N (centres undefined) ; GI50 observed: 2.03 µM (inactive)

In plain terms, C[C@H](NC(=O)C(C)(Cc1ccc(O)cn1)NC(=O)c1ccccc1)c1ccccc1 (some centres undefined) has a documented GI50 of > 100 µM (inactive)

compound C[C@]12C=CC(=O)C=C1CC[C@@H]1[C@@H]2CC[C@@]2(C)[C@H]1CC[C@]2(O)C(N)=O , GI50 observed: > 100 µM (inactive)

The compound identified as COC(=O)C(=Cc1cc(OC)c(OC)c(OC)c1-c1cc2c(cc1C(C)=O)OCO2)C(=O)OC registered its GI50 at 26.5 µM (inactive)

Record Nc1ccccc1C(=O)C(Br)C(Br)c1ccc2c(c1)OCO2 (centres undefined) , field GI50: 16.7 µM (inactive)

Record C1CNCCNCCN1 , field GI50: > 100 µM (inactive)

GI50 recorded for this compound, Cc1ccc2c(sc(-c3ccc4c(c3)sc(-c3ccc(N(C)C)cc3)[n+]4C)[n+]2C)c1S(=O)(=O)O.Cc1ccc2c(sc(-c3ccc4c(c3)sc(-c3ccc5c(c3)sc(-c3ccc(N(C)C)cc3)[n+]5C)[n+]4C)[n+]2C)c1S(=O)(=O)O , is > 100 µM (inactive)

// field: GI50; key: CCN(CC)C(=O)CCNC(C)Cc1c[nH]c2ccccc12 (centres undefined) ; value = > 100 µM (inactive)
